Test system: T-47D breast
METHOD SUMMARY: NCI-60 one-dose screen, 48 h (100 = growth as untreated, 0 = no growth, -100 = all killed)
RUN PARAMETERS: 10 µM unless noted
About 83,000 compounds went through this panel and 20% of them were active in at least one assay; those are over-represented in the sample as a whole.
MEASURED PROPERTY: growth (%)
The response must be a number in % with no trailing unit.

Given the entry `COc1cc(CNC(=O)Cc2ccccc2)ccc1OCc1cn(-c2ccc(F)cc2)nn1` , report its measured growth.
94.7

Given the entry `COc1cc(/C=C/C(=O)c2c(C)nc3ccccc3c2/C=C/c2ccccc2)cc(OC)c1OC` , report its measured growth.
13.3

Given the entry `COc1ccc(/C=C2/SC(=O)N(CC(=O)N3CCN(c4cc5c(cc4F)c(=O)c(C(=O)O)cn5C4CC4)CC3)C2=O)cc1` , report its measured growth.
104

Given the entry `O=C(Nc1ccc(I)cc1F)c1cc(F)ccc1O` , report its measured growth.
-12.4
